- MEASUREMENT_NOTES: Pharmacokinetics of AUDA-BE and its metabolites in plasma after single intraperitoneal injection
- Format: in vivo, C57Bl/6 mice
- RUN_PARAMETERS: C57Bl/6, mouse, plasma, ip, 10 mg/kg; read-out: mean residence time in plasma
MEASURE: MRT

For O=C(O)CCCCCCCCCCCNC(=O)NC12CC3CC(CC(C3)C1)C2 [AUDA] , write its MRT.
9 h

---

- MEASUREMENT_NOTES: AUDA-BE and its metabolites measured in brain tissue
- Format: in vivo, mice
- RUN_PARAMETERS: C57Bl/6, mouse, brain, intraperitoneal, 10 mg/kg; read-out: mean residence time in brain
MEASURE: MRT (h)
Entry rule: numbers only, all in h.

For O=C(O)CCCCCCCCCCCNC(=O)NC12CC3CC(CC(C3)C1)C2 [AUDA] , write its MRT.
6
